// provenance: ChEMBL document CHEMBL1155215

- experiment: Cytotoxicity against C57BL/6 mouse spleen lymphocytes assessed as inhibition of cell proliferation at 1 mg/ml after 48 hrs by MTT assay
- Type: tissue-based, Lymphocyte
Kind request: treat 60% as inclusive, so inhibition at 48 h, 1 mg/ml at 60% or higher is Condition met, anything lower is Condition not met.

Answered examples (4):
> print(dat)
                                   molecule     category.label
1  N#CC1=C(N)n2c(s/c(=C\c3ccc([N+](=O)[O-])cc3)c2=O)=C(C#N)C1c1ccc([N+](=O)[O-])cc1 (centres undefined)  Condition not met
2  N#CC1=C(N)n2c(s/c(=C\c3ccc(O)c([N+](=O)[O-])c3)c2=O)=C(C#N)C1c1ccc(O)c([N+](=O)[O-])c1 (centres undefined)  Condition not met
3  N#CC1=C(N)n2c(s/c(=C\c3cccs3)c2=O)=C(C#N)C1c1cccs1 (centres undefined)  Condition not met
4  N#CC1=C(N)N2C(=O)CSC2=C(C#N)C1c1ccc(Cl)cc1Cl (centres undefined)  Condition not met

[Q] Does the molecule N#CC1=C(N)N2C(=O)CSC2=C(C#N)C1c1ccc2c(c1)OCO2 (centres undefined) have recorded inhibition at 48 h, 1 mg/ml that is 60% or more?
[A] Condition met

[Q] Does the molecule N#CC1=C(N)N2C(=O)CSC2=C(C#N)C1c1ccccc1 (centres undefined) have recorded inhibition at 48 h, 1 mg/ml that is 60% or more?
[A] Condition met

[Q] Does the molecule N#CC1=C(N)n2c(s/c(=C\c3ccc(Br)cc3)c2=O)=C(C#N)C1c1ccc(Br)cc1 (centres undefined) have recorded inhibition at 48 h, 1 mg/ml that is 60% or more?
[A] Condition met

[Q] Does the molecule N#CC1=C(N)N2C(=O)CSC2=C(C#N)C1c1ccc(F)cc1 (centres undefined) have recorded inhibition at 48 h, 1 mg/ml that is 60% or more?
[A] Condition met

[Q] Does the molecule N#CC1=C(N)N2C(=O)CSC2=C(C#N)C1c1ccc(Br)cc1 (centres undefined) have recorded inhibition at 48 h, 1 mg/ml that is 60% or more?
[A] Condition met

---

List of inhibition at 48 h, 1 mg/ml values.
- experiment: Cytotoxicity against C57BL/6 mouse spleen lymphocytes assessed as inhibition of cell proliferation at 1 mg/ml after 48 hrs by MTT assay
- Type: tissue-based, Lymphocyte
Entry rule: numbers only, all in %.

Consider the following illustrative entries.
> print(dat)
                                   compound            property.measured  quantitative.result
1  N#CC1=C(N)N2C(=O)CSC2=C(C#N)C1c1ccccc1Cl (centres undefined)  inhibition at 48 h, 1 mg/ml                 60.4
2  COc1ccc(C2C(C#N)=C(N)N3C(=O)CSC3=C2C#N)cc1 (centres undefined)  inhibition at 48 h, 1 mg/ml                 70.6
3  Cc1ccc(C2C(C#N)=C(N)N3C(=O)CSC3=C2C#N)cc1 (centres undefined)  inhibition at 48 h, 1 mg/ml                 63.8

Lookup result for N#CC1=C(N)n2c(s/c(=C\c3cccc([N+](=O)[O-])c3)c2=O)=C(C#N)C1c1cccc([N+](=O)[O-])c1 (centres undefined) ; measured inhibition at 48 h, 1 mg/ml: 60.4
